Entry source: paper PMC9090415

target: P. falciparum apicoplast DNA polymerase (Pf-apPOL) (Plasmodium falciparum); assay: Fluorescence-based high-throughput DNA polymerase assay (molecular beacon), primary screen and dose-response; assay type: biochemical; settings: DRC-1; 90'; concentration 40
Sequence (Q8ILY1 entry or part of it): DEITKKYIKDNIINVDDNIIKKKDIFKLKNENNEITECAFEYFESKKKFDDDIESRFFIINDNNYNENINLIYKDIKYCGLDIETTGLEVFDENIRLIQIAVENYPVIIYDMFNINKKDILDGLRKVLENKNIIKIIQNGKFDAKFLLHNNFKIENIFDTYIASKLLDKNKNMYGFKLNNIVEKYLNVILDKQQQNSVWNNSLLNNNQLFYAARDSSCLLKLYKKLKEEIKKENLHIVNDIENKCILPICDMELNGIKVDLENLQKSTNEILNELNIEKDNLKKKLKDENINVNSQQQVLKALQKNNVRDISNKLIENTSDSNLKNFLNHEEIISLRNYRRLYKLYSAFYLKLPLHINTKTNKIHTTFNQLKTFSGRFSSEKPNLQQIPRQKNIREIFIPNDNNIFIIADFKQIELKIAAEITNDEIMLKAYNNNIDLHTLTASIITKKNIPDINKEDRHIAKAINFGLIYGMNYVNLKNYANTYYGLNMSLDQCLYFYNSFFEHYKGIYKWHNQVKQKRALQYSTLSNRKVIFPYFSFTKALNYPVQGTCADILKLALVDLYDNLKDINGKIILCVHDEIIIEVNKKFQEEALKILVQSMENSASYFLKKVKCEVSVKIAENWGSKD
Parameter threshold = 60%. Response is fulfilled when % inhibition Apol 90' meets or exceeds it, else not fulfilled.

[[record]]
compound = "O=c1cc(-c2ccccc2)oc2c(O)c(O)ccc12"
subjectoftest = "P. falciparum apicoplast DNA polymerase (Pf-apPOL) (Plasmodium falciparum)"
classification = "not fulfilled"

[[record]]
compound = "O=C(O)CC1SC(c2ccc3c(c2)OCO3)=NC1=O (centres unmarked)"
subjectoftest = "P. falciparum apicoplast DNA polymerase (Pf-apPOL) (Plasmodium falciparum)"
classification = "not fulfilled"

[[record]]
compound = "CCCCCCCCCCCC1SCC(C(=O)O)N1C(C)=O (centres unmarked)"
subjectoftest = "P. falciparum apicoplast DNA polymerase (Pf-apPOL) (Plasmodium falciparum)"
classification = "not fulfilled"

[[record]]
compound = "CC(C)(C)OC(=O)COc1ccc2cc(-c3ccccc3)c(=O)oc2c1"
subjectoftest = "P. falciparum apicoplast DNA polymerase (Pf-apPOL) (Plasmodium falciparum)"
classification = "not fulfilled"

[[record]]
compound = "O=C1CCCC2=C1C(c1ccccn1)C1=C(CCCC1=O)O2"
subjectoftest = "P. falciparum apicoplast DNA polymerase (Pf-apPOL) (Plasmodium falciparum)"
classification = "not fulfilled"

[[record]]
compound = "COCCN(CCOC)Cc1c(O)ccc2c1OC(=Cc1cc(Br)ccc1OC)C2=O"
subjectoftest = "P. falciparum apicoplast DNA polymerase (Pf-apPOL) (Plasmodium falciparum)"
classification = "fulfilled"

[[record]]
compound = "COc1ccc(S(=O)(=O)/N=C2\\NC(=O)/C(=C3\\C(=O)Nc4ccc([N+](=O)[O-])cc43)S2)cc1"
subjectoftest = "P. falciparum apicoplast DNA polymerase (Pf-apPOL) (Plasmodium falciparum)"
classification = "fulfilled"

[[record]]
compound = "O=c1cc(-c2ccccc2Cl)oc2c(NS(=O)(=O)c3cc(Cl)cc(Cl)c3O)ccc(O)c12"
subjectoftest = "P. falciparum apicoplast DNA polymerase (Pf-apPOL) (Plasmodium falciparum)"
classification = "fulfilled"


* * *

molecular target: P. falciparum apicoplast DNA polymerase (Pf-apPOL) (Plasmodium falciparum); experiment: Fluorescence-based high-throughput DNA polymerase assay (molecular beacon), primary screen and dose-response; type: biochemical; conditions: DRC-2; 180'; concentration 2.5;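 on % inhibition apPOL 180': test concentration in µM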
endpointLabel: % inhibition apPOL 180' (%)

[[record]]
compound = "Cc1cc(C)c(O)c(/N=C/c2cc([N+](=O)[O-])cc(Br)c2O)c1"
u = "%"
quantitativeresult = -0.688

[[record]]
compound = "O=C(Cn1ccc2c(=O)[nH]ccc21)Nc1ccc(Cl)cc1 [Molecule 36, O=C(Cn1ccc2c1cc[nH]c2=O)Nc1ccc(cc1)Cl]"
u = "%"
quantitativeresult = -7

[[record]]
compound = "CC(=O)Nc1cc(C(=O)NC(C)C)c2ccc(C)nc2c1"
u = "%"
quantitativeresult = 2

[[record]]
compound = "CCCCCCCCCCCCCCCCCC(=O)CCN(C)C"
u = "%"
quantitativeresult = 1.53

[[record]]
compound = "Cc1cccc(-c2nnc3ccc(NS(=O)(=O)c4ccc(C)c(C)c4)nn23)c1"
u = "%"
quantitativeresult = -0.478

[[record]]
compound = "N#Cc1c(C2CCCCC2)nc(Sc2ccc(C(F)(F)F)cc2[N+](=O)[O-])[nH]c1=O"
u = "%"
quantitativeresult = -0.258

[[record]]
compound = "O=C(Nc1nnc(-c2ccno2)o1)c1ccc2c(c1)OCO2"
u = "%"
quantitativeresult = -8

[[record]]
compound = "Cc1cc(C)cc(-n2nc3c(c2NC(=O)c2ccco2)CSC3)c1"
u = "%"
quantitativeresult = 6.36

[[record]]
compound = "O=C1CCCC2=C1C(c1ccccn1)C1=C(CCCC1=O)O2"
u = "%"
quantitativeresult = -0.328

[[record]]
compound = "Nc1c(S(=O)(=O)O)cc(Nc2ccccc2)c2c1C(=O)c1ccccc1C2=O"
u = "%"
quantitativeresult = 3.63

[[record]]
compound = "O=C(O)CCS(=O)(=O)c1ccc(-c2ccc(S(=O)(=O)CCC(=O)O)cc2)cc1"
u = "%"
quantitativeresult = -4.51

[[record]]
compound = "Cc1ccc(C)n1-c1ccc(C(=O)NNC(=O)c2ccc3nccnc3c2)cc1"
u = "%"
quantitativeresult = -1.53

[[record]]
compound = "CSC1=C(C#N)C(=C(C#N)C#N)NC(c2ccccc2)=N1 [Molecule 2, CSc1nc([nH]c(=C(C#N)C#N)c1C#N)c1ccccc1]"
u = "%"
quantitativeresult = 2.48

[[record]]
compound = "O=C1NCCCn2cc(S(=O)(=O)Nc3ccccc3)cc21"
u = "%"
quantitativeresult = 2

[[record]]
compound = "O=C(Nc1cccc(C(=O)Nc2ccc(S(=O)(=O)[O-])c3cc(S(=O)(=O)[O-])cc(S(=O)(=O)[O-])c23)c1)Nc1cccc(C(=O)Nc2ccc(S(=O)(=O)[O-])c3cc(S(=O)(=O)[O-])cc(S(=O)(=O)[O-])c23)c1.[Na+].[Na+].[Na+].[Na+].[Na+].[Na+]"
u = "%"
quantitativeresult = -3.36

[[record]]
compound = "CCCCOC(=O)CCCCCN1C(=O)C(=Cc2ccc(OC)cc2)SC1=S"
u = "%"
quantitativeresult = -5

[[record]]
compound = "O=c1[nH]c2ccc(Br)cc2c(-c2ccccc2)c1C1=NNC(c2ccco2)C1 (centres unmarked)"
u = "%"
quantitativeresult = 11

